Test system: Hydroxyapatite
Experiment: Binding affinity to hydroxyapatite at 3.6 to 10.7 mM after 1 hr by NMR analysis relative to control
Active and inactive are the calls of the source. The rule behind the calls is not given here.

[
  {
    "MOLECULE": "COP(=O)(O)CP(=O)(OC)OC",
    "Activity": "inactive"
  },
  {
    "MOLECULE": "COP(=O)(O)C(C)(O)P(=O)(O)O (centres undefined)",
    "Activity": "55.6%"
  },
  {
    "MOLECULE": "COP(=O)(OC)C(O)(CCCN)P(=O)(O)O (centres undefined)",
    "Activity": "21.7%"
  },
  {
    "MOLECULE": "CC(C)OP(=O)(OC(C)C)C(C)(O)P(=O)(O)O (centres undefined)",
    "Activity": "11.4%"
  },
  {
    "MOLECULE": "CC(=O)NCCCC(OC(C)=O)(P(=O)(O)O)P(=O)(O)O",
    "Activity": "47.7%"
  },
  {
    "MOLECULE": "CC(C)OP(=O)(O)C(Cl)(Cl)P(=O)(O)O",
    "Activity": "inactive"
  },
  {
    "MOLECULE": "COP(=O)(O)C(C)(O)P(=O)(O)OC (centres undefined)",
    "Activity": "3.8%"
  },
  {
    "MOLECULE": "COP(=O)(OC)C(C)(O)P(=O)(O)O (centres undefined)",
    "Activity": "12.6%"
  },
  {
    "MOLECULE": "COP(=O)(O)C(Cl)(Cl)P(=O)(O)O",
    "Activity": "inactive"
  },
  {
    "MOLECULE": "COP(=O)(O)C(C)(O)P(=O)(OC)OC (centres undefined)",
    "Activity": "inactive"
  },
  {
    "MOLECULE": "COP(=O)(O)CP(=O)(O)OC",
    "Activity": "inactive"
  },
  {
    "MOLECULE": "COP(=O)(O)C(O)(CCCN)P(=O)(O)O (centres undefined)",
    "Activity": "31%"
  },
  {
    "MOLECULE": "CC(O)(P(=O)(O)O)P(=O)(O)Oc1ccccc1 (centres undefined)",
    "Activity": "48%"
  },
  {
    "MOLECULE": "COP(=O)(O)CP(=O)(O)O",
    "Activity": "18.6%"
  }
]
